tested on: Bacillus subtilis PCI 219; experiment: MIC, two-fold agar dilution method; assay type: cell-based; conditions: nutrient agar
Quantity: minimum inhibitory concentration (MIC)

INSERT INTO results (molecule, target_of_assay, quantity, reading) VALUES
  ('Cc1c(N)nc(C(CC(N)=O)NCC(N)C(N)=O)nc1C(=O)NC(C(=O)NC(C)C(O)CC(=O)NC(C(=O)NC(OC1OC(C)C(N)C(O)C1O)C(O)c1nc(-c2nc(C(=O)NCCCC(N)CC(=O)NCCC[S+](C)C)cs2)cs1)C(C)O)C(OC1OC(CO)C(O)C(O)C1OC1OC(CO)C(O)C(OC(N)=O)C1O)c1c[nH]cn1 (stereo not drawn)', 'Bacillus subtilis PCI 219', 'minimum inhibitory concentration (MIC)', '< 0.05'),
  ('Cc1c(N)nc(C(CC(N)=O)NCC(N)C(N)=O)nc1C(=O)NC(C(=O)NC(C)C(O)CC(=O)NC(C(=O)NC(OC1OC(C)C(N)C(O)C1O)C(O)c1nc(-c2nc(C(=O)NCCCC(N)CC(=O)NCCCN)cs2)cs1)C(C)O)C(OC1OC(CO)C(O)C(O)C1OC1OC(CO)C(O)C(OC(N)=O)C1O)c1c[nH]cn1 (stereo not drawn)', 'Bacillus subtilis PCI 219', 'minimum inhibitory concentration (MIC)', '< 0.003'),
  ('Cc1c(N)nc(C(CC(N)=O)NCC(N)C(N)=O)nc1C(=O)NC(C(=O)NC(C)C(O)CC(=O)NC(C(=O)NC(OC1OC(C)C(N)C(O)C1O)C(O)c1nc(-c2nc(C(=O)NCCC[S+](C)C)cs2)cs1)C(C)O)C(OC1OC(CO)C(O)C(O)C1OC1OC(CO)C(O)C(OC(N)=O)C1O)c1cnc[nH]1.Cl.Cl.Cl.[Cl-] (stereo not drawn)', 'Bacillus subtilis PCI 219', 'minimum inhibitory concentration (MIC)', '< 0.05'),
  ('Cc1c(N)nc(C(CC(N)=O)NCC(N)C(N)=O)nc1C(=O)NC(C(=O)NC(C)C(O)CC(=O)NC(C(=O)NC(OC1OC(C)C(N)C(O)C1O)C(O)c1nc(-c2nc(C(=O)NCCCC(N)CC(=O)NCCCCN)cs2)cs1)C(C)O)C(OC1OC(CO)C(O)C(O)C1OC1OC(CO)C(O)C(OC(N)=O)C1O)c1c[nH]cn1 (stereo not drawn) [Tallysomycin S10a]', 'Bacillus subtilis PCI 219', 'minimum inhibitory concentration (MIC)', 0.04),
  ('Cc1c(N)nc(C(CC(N)=O)NCC(N)C(N)=O)nc1C(=O)NC(C(=O)NC(C)C(O)CC(=O)NC(C(=O)NC(OC1OC(C)C(N)C(O)C1O)C(O)c1nc(-c2nc(C(=O)NCCCN(C)C)cs2)cs1)C(C)O)C(OC1OC(CO)C(O)C(O)C1OC1OC(CO)C(O)C(OC(N)=O)C1O)c1c[nH]cn1 (stereo not drawn)', 'Bacillus subtilis PCI 219', 'minimum inhibitory concentration (MIC)', 0.1),
  ('Cc1c(N)nc(C(CC(N)=O)NCC(N)C(N)=O)nc1C(=O)NC(C(=O)NC(C)C(O)CC(=O)NC(C(=O)NC(OC1OC(C)C(N)C(O)C1O)C(O)c1nc(-c2nc(C(=O)NCCCNC(C)c3ccccc3)cs2)cs1)C(C)O)C(OC1OC(CO)C(O)C(O)C1OC1OC(CO)C(O)C(OC(N)=O)C1O)c1c[nH]cn1 (stereo not drawn) [Tallysomycin S14b]', 'Bacillus subtilis PCI 219', 'minimum inhibitory concentration (MIC)', 0.4);
